Recorded values, source paper PMC7826789.

Reported Percent Control is given for each of the following molecules.
- Test system: RET(V804L)
- experimental-setup: Compound Concentration (nM):1000;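 note: KINOMEscan scanMAX binding as percent activity remaining versus control; lower means stronger binding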
Number in %, nothing else.

*Q* Entry under review: COc1ccc2cc(-c3c(-c4ccncc4)nc(-c4ccc(S(C)(=O)=O)cc4C)n3C)ccc2c1 . Reported Percent Control?
*A* 94

----------
- System: PLK3
- experimental-setup: Compound Concentration (nM):1000
Reported Percent Control is given for each of the following compounds.
Number in %, nothing else.

Example compounds with recorded Percent Control:
INSERT INTO measurements (compound, value_kind, endpoint_result) VALUES
  ('C[C@@H](Oc1cc(-n2cnc3ccc(OC4CCN(C)CC4)cc32)sc1C(N)=O)c1ccccc1Cl [GSK579289A]', 'Percent Control', 19),
  ('COc1ccc(COc2ccc(Cc3cnc(N)nc3N)cc2OC)cc1 [GW632580X]', 'Percent Control', 97),
  ('COc1ccccc1-c1cc(/C=C2\C(=O)Nc3ncc(Br)cc32)cc(Br)c1O [GW442130X]', 'Percent Control', 89);

*Q* Query the reported Percent Control for PLK3; item: CN(C)CCNC(=O)Nc1ccc(N(C)c2ccnc(Nc3ccc(CS(C)(=O)=O)cc3)n2)cc1.Cl [GW830900A]
*A* 90

----------
- Test system: TSSK1B
- experimental-setup: Compound Concentration (nM):1000
value-kind: Percent Control (%)
Number in %, nothing else.

Example compounds with recorded Percent Control:
INSERT INTO measurements (compound, value_kind, unit_text, endpoint_result) VALUES
  ('CN(C)c1cc2c(Nc3ccc4c(cnn4Cc4ccccc4)c3)ncnc2cn1 [GW282974X]', 'Percent Control', '%', 100),
  ('Cl.c1ccc(Cc2nc3ccc(Nc4ncnc5ccccc45)cc3[nH]2)cc1 [GR269666A]', 'Percent Control', '%', 70),
  ('Cl.O=C(Nc1ccc(Oc2ccc3[nH]c(NC(=O)c4ccco4)nc3c2)cc1)Nc1cc(C(F)(F)F)ccc1F [GW683134A]', 'Percent Control', '%', 100),
  ('CCS(=O)(=O)c1ccc(OC)c(Nc2ncc(-c3cccc(OC)c3)o2)c1 [GW580509X]', 'Percent Control', '%', 100),
  ('Cl.O=C(O[C@H]1CN[C@H](C#Cc2cc3ncnc(Nc4ccc5c(cnn5Cc5ccccc5)c4)c3s2)C1)N1CCOCC1 [GSK200398A]', 'Percent Control', '%', 100);

*Q* Entry under review: COc1cc(N2CCN(C(C)C)CC2)ccc1Nc1nc(Nc2ccc(F)cc2C(=O)NC[C@@H](O)CO)c2cc[nH]c2n1 [GSK1392956A] . Reported Percent Control?
*A* 42

*Q* Entry under review: C[C@@H](Oc1cc(-n2cnc3ccc(OC4CCN(C)CC4)cc32)sc1C(N)=O)c1ccccc1Cl [GSK579289A] . Reported Percent Control?
*A* 71

*Q* Entry under review: CN(C)CCNC(=O)Nc1ccc(N(C)c2ccnc(Nc3ccc(CS(C)(=O)=O)cc3)n2)cc1.Cl [GW830900A] . Reported Percent Control?
*A* 100

----------
- System: CDKL5
- experimental-setup: Compound Concentration (nM):1000
Reported Percent Control is given for each of the following molecules.

Example molecules with recorded Percent Control:
INSERT INTO assay_data (molecule, test_target, value_kind, endpoint_result) VALUES
  ('CCn1c(-c2nonc2N)nc2c(C#CC(C)(C)O)nc(OCCNC)cc21.Cl', 'CDKL5', 'Percent Control', '100%'),
  ('CC1=C(C(=O)Nc2ccc3[nH]ncc3c2)C(c2ccc(Cl)c(Cl)c2)CC(=O)N1 (stereo not shown) [GSK299115A]', 'CDKL5', 'Percent Control', '97%'),
  ('COc1cccc(-c2c[nH]c3c(N/N=C/c4ccncc4)ncnc23)c1 [GW814408X]', 'CDKL5', 'Percent Control', '4.2%');

*Q* Entry under review: NS(=O)(=O)c1ccc(N/N=C2\C(=O)Nc3ccc(-c4cnco4)cc32)cc1 . Reported Percent Control?
*A* 16%

*Q* Entry under review: COc1cccc(-n2ncc3c(N/N=C/c4ccncc4)ncnc32)c1 [GW784752X] . Reported Percent Control?
*A* 5.1%

*Q* Entry under review: NS(=O)(=O)c1ccc(Nc2ncc(-c3ccccc3)o2)cc1 [GW572399X] . Reported Percent Control?
*A* 100%

*Q* Entry under review: O=C(Nc1n[nH]c2nc(-c3ccc(O)cc3)c(Br)cc12)C1CC1 . Reported Percent Control?
*A* 37%

*Q* Entry under review: COc1ccc2[nH]c3c4[nH]c5ccc(OC)cc5c4c4c(c3c2c1)C(=O)NC4=O [GW296115X] . Reported Percent Control?
*A* 94%

*Q* Entry under review: CCc1ccc(Oc2nccc(-c3c(-c4ccc(F)cc4)ncn3C3CCNCC3)n2)cc1 . Reported Percent Control?
*A* 84%

*Q* Entry under review: COc1cc(/C=N/Nc2ncnc3[nH]ncc23)ccc1O [GW578748X] . Reported Percent Control?
*A* 100%

*Q* Entry under review: COC(=O)Nc1nc2ccc(Oc3ccc(NC(=O)Nc4cc(C(F)(F)F)ccc4F)cc3)cc2s1.Cl [GW693917A] . Reported Percent Control?
*A* 38%

*Q* Entry under review: CN(C)CCNC(=O)Nc1ccc(N(C)c2ccnc(Nc3ccc(CS(C)(=O)=O)cc3)n2)cc1.Cl [GW830900A] . Reported Percent Control?
*A* 100%
